experiment: Oral bioavailability in Sprague-Dawley rat at 1.8 mg/kg; type: ADME, organism-based; details: in vivo
property-measured: bioavailability (%)
Reply with just the number (in %).

[in] Requested field: bioavailability. Item: CC1=C(C(=O)Nc2ccc3[nH]ncc3c2)C(c2ccc(F)cc2)N=C(c2ccccc2)N1 (stereo unspecified)
[out] 16

* * *

What t1/2 was measured for each of the following?
system: Rattus norvegicus; experiment: Half life in Sprague-Dawley rat at 1.1 mg/kg, iv; type: ADME, organism-based; design: dose 1.1 mg/kg, route intravenous; settings: in vivo
Provide a numeric answer, followed by its unit.

[in] Which t1/2 is reported for this compound? COc1cc(C2=NC(c3ccc(Cl)cc3F)C(C(=O)Nc3ccc4[nH]ncc4c3)=C(C)N2)ccn1 (centres undefined)
[out] 34 min

[in] GET /values?readout=t1/2&item= CC1=C(C(=O)Nc2ccc3[nH]ncc3c2)C(c2ccc(Cl)cc2F)N=C(c2ccnc(Cl)c2)N1 (centres undefined)
[out] 62 min

[in] // query t1/2 value for entry COc1cc(C2=NC(c3ccc(Cl)cc3F)C(C(=O)Nc3cc4cn[nH]c4cc3F)=C(C)N2)ccn1 (centres undefined)
[out] 46 min

[in] What value of t1/2 has been reported for the following compound? CC1=C(C(=O)Nc2cc3cn[nH]c3cc2F)C(c2ccc(Cl)cc2F)N=C(c2ccnc(Cl)c2)N1 (centres undefined)
[out] 105 min

* * *

Would you kindly list IC50 for each of these compounds?
target: Rho-associated protein kinase 1 (Homo sapiens); test: Inhibition of human recombinant ROCK1 kinase expressed in insect Sf9 cells by SPA
Unit nM implied. Number only.

[in] Recorded IC50 of CC1=C(C(=O)Nc2cc3cn[nH]c3cc2F)C(c2ccc(Cl)cc2F)N=C(c2ccnc(Cl)c2)N1 (configuration not stated) , please.
[out] 6

[in] # get_value(readout='IC50', item= COc1ccc(C2=NC(c3ccc(C(F)(F)F)cc3F)C(C(=O)Nc3ccc4[nH]ncc4c3)=C(C)N2)cc1 (configuration not stated) )
[out] 26

[in] Could you share which IC50 value was measured for COc1cc(C2=NC(c3ccc(Cl)cc3F)C(C(=O)Nc3ccc4[nH]ncc4c3)=C(C)N2)ccn1 (configuration not stated) ?
[out] 2

[in] Data request, read-out IC50, for COc1ccc(C2=NC(c3ccc(S(N)(=O)=O)cc3)C(C(=O)Nc3ccc4[nH]ncc4c3)=C(C)N2)cc1 (configuration not stated)
[out] 68

[in] Reported IC50 for CC1=C(C(=O)Nc2ccc3[nH]ncc3c2)C(c2ccc(F)cc2)N=C(c2cccc(C(F)(F)F)c2)N1 (configuration not stated) : what is it?
[out] 288

[in] Field request: IC50 | item: CC1=C(C(=O)Nc2ccc3[nH]ncc3c2)C(c2ccc(F)cc2)N=C(c2ccc(C)cc2)N1 (configuration not stated)
[out] 101

[in] # get_value(readout='IC50', item= CC1=C(C(=O)Nc2ccc3[nH]ncc3c2)C(c2ccc(F)cc2)N=C(c2ccc(C(F)(F)F)nc2)N1 (configuration not stated) [GSK-317354A] )
[out] 75

[in] Entry CC1=C(C(=O)Nc2ccc3[nH]ncc3c2)C(c2ccc(Cl)cc2F)N=C(c2ccnc(Cl)c2)N1 (configuration not stated) has what IC50?
[out] 4

[in] Consider the compound shown here: CC1=C(C(=O)Nc2ccc3[nH]ncc3c2)C(c2ccc(F)cc2)N=C(c2ccc(C)c(F)c2)N1 (configuration not stated) What is its recorded IC50?
[out] 104

[in] Please look up its IC50: CC1=C(C(=O)Nc2ccc3[nH]ncc3c2)C(c2ccc(F)cc2)N=C(c2cccc(C)c2)N1 (configuration not stated)
[out] 129

[in] Please look up its IC50: COc1ccc(C2=NC(c3ccc(F)cc3)C(C(=O)Nc3ccc4[nH]ncc4c3)=C(C)N2)cc1 (configuration not stated)
[out] 46

[in] Reported IC50 for CC1=C(C(=O)Nc2ccc3[nH]ncc3c2)C(c2ccc(F)cc2)N=C(c2cnccn2)N1 (configuration not stated) : what is it?
[out] 105

[in] Given the compound CCOc1cc(C2=NC(c3ccc(Cl)cc3F)C(C(=O)Nc3cc4cn[nH]c4cc3F)=C(C)N2)ccn1 (configuration not stated) , what is its reported IC50?
[out] 11

[in] What value of IC50 has been reported for the following compound? COc1cc(C2=NC(c3ccc(Cl)cc3F)C(C(=O)Nc3cc4cn[nH]c4cc3F)=C(C)N2)ccn1 (configuration not stated)
[out] 6

[in] Which IC50 reading was recorded for the compound CC1=C(C(=O)Nc2ccc3[nH]ncc3c2)C(c2ccc(F)cc2)N=C(c2ccccc2)N1 (configuration not stated) ?
[out] 105

[in] // lookup IC50 for CC1=C(C(=O)Nc2ccc3[nH]ncc3c2)C(c2ccc(F)cc2)N=C(c2ccc(Cl)cc2)N1 (configuration not stated)
[out] 129

[in] Give its IC50 value. Item: COc1ccc(C2=NC(c3ccc(Cl)cc3F)C(C(=O)Nc3ccc4[nH]ncc4c3)=C(C)N2)cc1 (configuration not stated)
[out] 5

* * *

test: Clearance in Sprague-Dawley rat at 1.2 mg/kg, iv; type: ADME, organism-based; set-up: dose 1.2 mg/kg, route intravenous; details: in vivo
property-measured: clearance (mL/min/kg)
Give just the numeric value; mL/min/kg need not be written.

[in] Item under review: COc1ccc(C2=NC(c3ccc(F)cc3)C(C(=O)Nc3ccc4[nH]ncc4c3)=C(C)N2)cc1 (stereo unspecified) . Reported clearance?
[out] 55

* * *

assay: Half life in Sprague-Dawley rat at 1.2 mg/kg, iv; type: ADME, organism-based; set-up: dose 1.2 mg/kg, route intravenous; details: in vivo
property-measured: half-life (h)
The reply should contain only the number, in h.

[in] Find the recorded half-life belonging to COc1ccc(C2=NC(c3ccc(F)cc3)C(C(=O)Nc3ccc4[nH]ncc4c3)=C(C)N2)cc1 (stereo unspecified) and report it.
[out] 2.82

* * *

assay: Volume of distribution at steady state in Sprague-Dawley rat at 1.8 mg/kg, iv; assay type: ADME, organism-based; parameters: dose 1.8 mg/kg, route intravenous; conditions: in vivo, read-out: Vdss
property-measured: Vd (L/kg)
Numbers only; they are read as L/kg.

[in] I have this compound here, CC1=C(C(=O)Nc2ccc3[nH]ncc3c2)C(c2ccc(F)cc2)N=C(c2ccccc2)N1 (stereo unspecified) , and I need its recorded Vd.
[out] 0.8

* * *

test: Oral bioavailability in Sprague-Dawley rat at 1.1 mg/kg; format: ADME, organism-based; conditions: in vivo
Exercise: for every item that follows, state its recorded bioavailability.
Report the figure in % without appending any unit label.

[in] What value of bioavailability has been reported for the following molecule? COc1cc(C2=NC(c3ccc(Cl)cc3F)C(C(=O)Nc3cc4cn[nH]c4cc3F)=C(C)N2)ccn1 (stereo unspecified)
[out] 53

[in] Could you tell me which bioavailability is on file for COc1cc(C2=NC(c3ccc(Cl)cc3F)C(C(=O)Nc3ccc4[nH]ncc4c3)=C(C)N2)ccn1 (stereo unspecified) ?
[out] 21

[in] Data request, read-out bioavailability, for COc1ccc(C2=NC(c3ccc(Cl)cc3F)C(C(=O)Nc3ccc4[nH]ncc4c3)=C(C)N2)cc1 (stereo unspecified)
[out] 58

[in] # bioavailability lookup, item CC1=C(C(=O)Nc2cc3cn[nH]c3cc2F)C(c2ccc(Cl)cc2F)N=C(c2ccnc(Cl)c2)N1 (stereo unspecified)
[out] 49

[in] # get_value(readout='bioavailability', item= COc1ccc(C2=NC(c3ccc(Cl)cc3F)C(C(=O)Nc3ccc4[nH]ncc4c3)=C(C)N2)cn1 (stereo unspecified) )
[out] 27

[in] Field request: bioavailability | item: CC1=C(C(=O)Nc2ccc3[nH]ncc3c2)C(c2ccc(Cl)cc2F)N=C(c2ccnc(Cl)c2)N1 (stereo unspecified)
[out] 7

* * *

As a worked illustration, we turn to pIC50 data collected for UniProt P10635.
Sequence (P10635 whole entry): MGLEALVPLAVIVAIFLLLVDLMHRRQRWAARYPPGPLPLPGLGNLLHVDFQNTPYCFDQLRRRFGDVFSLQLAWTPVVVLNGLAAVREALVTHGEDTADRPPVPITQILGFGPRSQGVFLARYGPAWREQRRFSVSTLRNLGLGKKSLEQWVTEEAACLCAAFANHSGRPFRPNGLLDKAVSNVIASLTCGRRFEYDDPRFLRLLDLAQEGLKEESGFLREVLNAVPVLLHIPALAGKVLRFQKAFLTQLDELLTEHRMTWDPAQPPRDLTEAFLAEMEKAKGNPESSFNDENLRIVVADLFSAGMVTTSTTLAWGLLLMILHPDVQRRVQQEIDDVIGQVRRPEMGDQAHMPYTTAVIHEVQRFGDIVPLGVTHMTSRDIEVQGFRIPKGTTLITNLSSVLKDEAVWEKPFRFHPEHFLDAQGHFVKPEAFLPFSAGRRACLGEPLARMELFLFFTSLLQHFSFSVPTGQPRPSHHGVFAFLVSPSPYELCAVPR
Units for pIC50: none; it is -log10 of a concentration expressed in mol/L.

[in] Report pIC50 for COc1cc(C2=NC(c3ccc(Cl)cc3F)C(C(=O)Nc3ccc4[nH]ncc4c3)=C(C)N2)ccn1 (centres undefined) please.
[out] 5.43

[in] So what's the measured pIC50 for this one? CC1=C(C(=O)Nc2ccc3[nH]ncc3c2)C(c2ccc(F)cc2)N=C(c2ccccc2)N1 (centres undefined)
[out] 7.05

[in] What does the data say about its pIC50? Entry: COc1ccc(C2=NC(c3ccc(Cl)cc3F)C(C(=O)Nc3ccc4[nH]ncc4c3)=C(C)N2)cc1 (centres undefined)
[out] 6.70

[in] What does the record list as pIC50 for COc1ccc(C2=NC(c3ccc(Cl)cc3F)C(C(=O)Nc3ccc4[nH]ncc4c3)=C(C)N2)cn1 (centres undefined) ?
[out] 5.92

* * *

So I've got a bunch of compounds here, and I need their IC50 values.
molecular target: Rho-associated protein kinase 1 (Homo sapiens, UniProt Q13464); assay: Inhibition of human recombinant ROCK1 kinase expressed in insect Sf9 cells by SPA
Sequence (Q13464 whole entry): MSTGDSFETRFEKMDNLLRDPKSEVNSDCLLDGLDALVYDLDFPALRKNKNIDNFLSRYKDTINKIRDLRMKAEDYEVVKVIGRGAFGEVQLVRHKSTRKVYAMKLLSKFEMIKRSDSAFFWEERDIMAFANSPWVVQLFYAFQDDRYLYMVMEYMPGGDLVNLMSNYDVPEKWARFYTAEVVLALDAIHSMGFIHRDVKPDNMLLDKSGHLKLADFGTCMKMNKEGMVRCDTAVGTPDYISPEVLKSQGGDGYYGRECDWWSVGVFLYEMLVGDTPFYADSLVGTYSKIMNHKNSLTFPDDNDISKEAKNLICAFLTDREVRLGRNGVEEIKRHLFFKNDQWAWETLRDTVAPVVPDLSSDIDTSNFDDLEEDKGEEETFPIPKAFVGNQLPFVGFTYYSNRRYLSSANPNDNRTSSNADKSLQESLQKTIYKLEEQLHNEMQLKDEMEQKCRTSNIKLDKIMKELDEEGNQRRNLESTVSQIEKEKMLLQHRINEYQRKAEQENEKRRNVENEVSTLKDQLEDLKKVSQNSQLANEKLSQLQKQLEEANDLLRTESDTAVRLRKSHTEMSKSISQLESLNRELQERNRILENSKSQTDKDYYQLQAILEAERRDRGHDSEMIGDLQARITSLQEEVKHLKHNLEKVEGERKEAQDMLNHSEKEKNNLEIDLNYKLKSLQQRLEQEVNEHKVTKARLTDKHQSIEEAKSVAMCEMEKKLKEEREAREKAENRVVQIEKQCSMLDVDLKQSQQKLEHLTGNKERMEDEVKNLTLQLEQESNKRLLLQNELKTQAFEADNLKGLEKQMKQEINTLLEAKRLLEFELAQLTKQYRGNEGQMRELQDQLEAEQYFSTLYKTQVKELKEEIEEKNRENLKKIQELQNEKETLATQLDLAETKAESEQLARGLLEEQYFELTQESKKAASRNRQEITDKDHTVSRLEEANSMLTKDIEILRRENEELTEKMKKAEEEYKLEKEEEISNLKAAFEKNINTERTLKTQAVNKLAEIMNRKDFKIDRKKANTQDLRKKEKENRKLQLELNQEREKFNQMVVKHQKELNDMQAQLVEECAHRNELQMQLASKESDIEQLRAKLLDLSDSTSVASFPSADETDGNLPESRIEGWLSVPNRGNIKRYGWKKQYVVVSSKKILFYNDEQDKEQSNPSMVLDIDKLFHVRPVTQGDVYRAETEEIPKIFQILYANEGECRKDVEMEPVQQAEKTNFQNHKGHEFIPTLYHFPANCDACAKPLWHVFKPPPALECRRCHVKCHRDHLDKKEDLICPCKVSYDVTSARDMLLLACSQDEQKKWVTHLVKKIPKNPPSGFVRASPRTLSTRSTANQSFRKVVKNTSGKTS
Give the quantity in µM, number only.

[in] Could you tell me which IC50 is on file for CC1=C(C(=O)Nc2ccc3[nH]ncc3c2)C(c2ccc(F)cc2)N=C(c2ccccn2)N1 (configuration not stated) ?
[out] 0.18

[in] Which IC50 is listed for COc1ccc(C2=NC(c3ccc(S(C)(=O)=O)cc3)C(C(=O)Nc3ccc4[nH]ncc4c3)=C(C)N2)cc1 (configuration not stated) ?
[out] 0.15

[in] For the compound CC1=C(C(=O)Nc2ccc3[nH]ncc3c2)C(c2ccc(F)cc2)N=C(c2ccncc2)N1 (configuration not stated) , what IC50 is on record?
[out] 0.008

[in] Fill in: IC50 of COc1ccc(C2=NC(c3ccc(Cl)cc3F)C(C(=O)Nc3ccc4[nH]ncc4c3)=C(C)N2)cn1 (configuration not stated) is ___
[out] 0.003

[in] Need IC50 of CC1=C(C(=O)Nc2ccc3[nH]nc(C)c3c2)C(c2ccc(Cl)cc2F)N=C(c2ccnc(Cl)c2)N1 (configuration not stated) , thanks.
[out] 0.015

[in] Data request, read-out IC50, for CC1=C(C(=O)Nc2cc3cn[nH]c3cc2F)C(c2ccc(Cl)cc2F)N=C(c2ccnc(C)c2)N1 (configuration not stated)
[out] 0.01

[in] IC50 lookup needed for COc1ccc(C2=NC(C)C(C(=O)Nc3ccc4[nH]ncc4c3)=C(C)N2)cc1 (configuration not stated) , thanks.
[out] 0.863
